Test system: SW-620 colon
Test: NCI-60 one-dose screen, 48 h
Details: 10 µM unless noted
This is part of a sample that, as a whole, favours compounds with a hit. Of some 83,000 tested, about 20% had one in any assay. Active and inactive are the calls of the source. Rule for the calls: active = growth percent below 10; inactive = the rest.
Write down one outcome, taken from active, inactive

Task item: # fetch the recorded call for Cc1ccc(S(=O)(=O)Nc2ccc(-c3cc(-c4cccc(F)c4)c(C#N)c(N)n3)cc2)cc1 here
Reply: active

Task item: # fetch the recorded call for Cc1cc(Cl)nc(N(CCCNc2ccnc3cc(Cl)ccc23)Cc2ccco2)n1 here
Reply: inactive

Task item: # fetch the recorded call for CC(=O)N1N=C(c2ccc(C)cc2)CC1c1ccc(Oc2ccc(Br)cc2)cc1 (stereo unspecified) here
Reply: inactive

Task item: # fetch the recorded call for CCN1CCN(C(=O)[C@]23CCC(C)(C)C[C@H]2C2=CC[C@@H]4[C@@]5(C)CC/C(=N/O)C(C)(C)[C@@H]5CC[C@@]4(C)[C@]2(C)CC3)CC1 here
Reply: inactive

Task item: # fetch the recorded call for NC(=O)[C@@H]1CC2CCC1C2 (stereo partly specified) here
Reply: inactive

Task item: # fetch the recorded call for COc1ccc(/C(=C\c2ccc3c(c2)OCO3)C(=O)Nc2nc3ccccc3s2)cc1OC here
Reply: inactive

Task item: # fetch the recorded call for CCCCC(=O)OC1CCCCC1C (stereo unspecified) here
Reply: inactive

Task item: # fetch the recorded call for Nc1c(C(=O)Nc2c(Cl)cccc2Cl)sc2nc3c(cc12)C(=O)CCC3 here
Reply: inactive

Task item: # fetch the recorded call for Clc1ccc(Cn2cc(-c3nc4ccc(Br)nc4n3Cc3ccc(Cl)cc3)c3cccnc32)cc1 here
Reply: inactive

Task item: # fetch the recorded call for C=C1C(=O)O[C@H]2[C@H]1CC/C(COC(=O)NCCc1c[nH]c3ccccc13)=C\CC[C@@]1(C)O[C@@H]21 here
Reply: active

Task item: # fetch the recorded call for N#C/C(=C\c1ccc(-c2ccc(Br)cc2)o1)c1nc(-c2ccco2)cs1 here
Reply: inactive

###

System: NCI/ADR-RES ovarian
Test: NCI-60 one-dose screen, 48 h
Settings: 10 µM unless noted
Compounds without any hit were thinned out: in the full panel of roughly 83,000, 20% have a hit. Calls of active or inactive are those of the source. The calls were made as follows: active = growth percent below 10; inactive = the rest.
Write down one outcome, taken from active, inactive

Task item: # fetch the recorded call for CC(C)=CCC[C@](C)(O)[C@H]1CC[C@]2(C)[C@@H]1CC[C@@H]1[C@@]3(C)C/C(=C/c4ccc(Br)cc4)C(=O)C(C)(C)[C@@H]3CC[C@]12C here
Reply: inactive

Task item: # fetch the recorded call for CC(CNc1nc(Nc2ccc(Cl)c(Cl)c2)nc(C(Cl)(Cl)Cl)n1)N(C)C (stereo unspecified) here
Reply: active

Task item: # fetch the recorded call for COc1ccc2c(c1)c(-c1nc(-c3cn(C)c4ncccc34)cs1)cn2CCCN1CCCCC1 here
Reply: inactive

Task item: # fetch the recorded call for O=C1/C(=C\c2ccc(Br)o2)SC(=S)N1CCc1ccc(O)cc1 here
Reply: inactive

Task item: # fetch the recorded call for CCCCCCCCNc1cccc2c1C(=O)c1ccccc1C2=O here
Reply: inactive

Task item: # fetch the recorded call for CN(C)c1cccc2[nH]c(-c3[nH]ncc3Nc3ccnc(N)n3)nc12 here
Reply: active

Task item: # fetch the recorded call for C#CCn1c(C)cc(C)c(C#N)c1=O here
Reply: inactive

Task item: # fetch the recorded call for Brc1ccc(Cn2nnnc2-c2ccn(-c3ccccc3)n2)cc1 here
Reply: inactive

Task item: # fetch the recorded call for Cc1ccc(-c2nc([P+](c3ccccc3)(c3ccccc3)c3ccccc3)c(N3C[C@H]4C[C@H](C3)c3cccc(=O)n3C4)o2)cc1 here
Reply: inactive

Task item: # fetch the recorded call for COc1cc2[nH]c(C(=O)c3cc(OC)c(OC)c(OC)c3)c(N)c2cc1C#CCO here
Reply: inactive

Task item: # fetch the recorded call for CN(C)CCCCC(C(=O)CBr)(c1ccccc1)c1ccccc1 here
Reply: inactive

Task item: # fetch the recorded call for C=CC(=O)N[C@H](Cc1ccc(-c2cc(Cl)cc(Cl)c2)cc1)[C@H](O)[C@@H](O)C(=O)O here
Reply: inactive

Task item: # fetch the recorded call for CCCC1CCCCN1C(=O)OCC(C)C (stereo unspecified) here
Reply: inactive

Task item: # fetch the recorded call for O=C1CCN2C(=O)Nc3ccccc3C2C1 (stereo unspecified) here
Reply: inactive

Task item: # fetch the recorded call for CC(=O)Nc1cc(F)cc(C(F)(F)F)c1Cl here
Reply: inactive

Task item: # fetch the recorded call for COC(c1ccccc1)(c1ccccc1)c1ccccc1 here
Reply: inactive

Task item: # fetch the recorded call for C=C(C)[C@@H]1CC[C@]2(C(=O)O)CC[C@]3(C)[C@H](CC[C@@H]4[C@@]5(C)C/C(=C/c6ccc(OC)cc6)C(=O)C(C)(C)[C@@H]5CC[C@]43C)[C@@H]12 here
Reply: inactive

Task item: # fetch the recorded call for COc1ccc(/C=C(\C#N)c2cc3ccccc3n2C(C)=O)cc1 here
Reply: inactive

Task item: # fetch the recorded call for COc1ccc(C2c3ccccc3NC(=O)N2C2CCN(C)CC2)c(OC)c1 (stereo unspecified) here
Reply: inactive

Task item: # fetch the recorded call for O=C1CCC/C=C\C[C@H]2C=C(Cl)C(=O)/C2=C/C[C@H](CCCCC(F)(F)F)OC(=O)CCC/C=C\C[C@H]2C=C(Cl)C(=O)/C2=C/C[C@H](CCCCC(F)(F)F)O1 here
Reply: inactive

Task item: # fetch the recorded call for Nc1nc(N)c2nc3c(nc2n1)CCCCCCCCCC3 here
Reply: inactive

Task item: # fetch the recorded call for Fc1ccc2[nH]cc(-c3nc(-c4c[nH]c5ncccc45)cs3)c2c1 here
Reply: inactive

Task item: # fetch the recorded call for OCC(CO)(CCl)CCl here
Reply: inactive

Task item: # fetch the recorded call for COc1ccc(/C=C/C(=O)NCC(C)O)cc1 (stereo unspecified) here
Reply: inactive

Task item: # fetch the recorded call for COc1cccc2c1C(=O)c1c(O)c3c(c(O)c1C2=O)C[C@@](O)(C(=O)CO)C[C@@H]3OC1C[C@H](N)[C@H](O)[C@H](C)O1 (stereo partly specified) here
Reply: inactive

Task item: # fetch the recorded call for CC(=O)O[C@@H]1CCN2C(=O)N(C)c3ccccc3[C@@H]2C1 here
Reply: inactive

Task item: # fetch the recorded call for Cc1nn(-c2ccc(Cl)cc2)c(=O)n1CCn1cnc2ccccc21 here
Reply: inactive

Task item: # fetch the recorded call for COc1cc(-c2cc(-c3nc4ccccc4[nH]3)[nH]n2)cc(OC)c1OC here
Reply: inactive

Task item: # fetch the recorded call for COc1ccc2nc(-c3c(-c4ccccc4)nc4ncccn34)[nH]c2c1 here
Reply: inactive

Task item: # fetch the recorded call for O=C(O)c1cccc2c1-c1ccc(Cl)cc1C2 here
Reply: inactive

Task item: # fetch the recorded call for Cc1csc(Nc2nc(-c3ccc(Cl)cc3)nc(C(Cl)(Cl)Cl)n2)n1 here
Reply: inactive

Task item: # fetch the recorded call for Fc1cccc(-c2[nH]nc3nc(Nc4cccnc4)sc23)c1 here
Reply: inactive

Task item: # fetch the recorded call for CC1=CC(=O)N(c2cccc3c(N4C(=O)C=C(C)C4=O)cccc23)C1=O here
Reply: inactive

Task item: # fetch the recorded call for c1ccc2[nH]c(-c3ccc(Nc4nc(N5CCCCC5)nc(N5CCOCC5)n4)cc3)nc2c1 here
Reply: inactive

Task item: # fetch the recorded call for COc1cc2c(cc1-c1c(C)noc1C)ncc1nc(C3CCCCC3)n([C@@H](C)COC(F)F)c12 here
Reply: inactive

Task item: # fetch the recorded call for Cn1nc(-c2ccccc2)c2c(-c3ccccc3)onc2c1=O here
Reply: inactive

Task item: # fetch the recorded call for COc1cccc(-c2nn(-c3ccccc3)cc2-c2ccnc(NCCCO)c2)c1 here
Reply: active

Task item: # fetch the recorded call for COc1ccc(CCN2C(=O)C(C)(C)SC2=S)cc1OC here
Reply: inactive

Task item: # fetch the recorded call for Cn1cc(-c2csc(-c3cn(CCNC(=O)OC(C)(C)C)c4ccccc34)n2)c2cccnc21 here
Reply: inactive

Task item: # fetch the recorded call for O=[N+]([O-])c1cccc(/C=N\Nc2ccccc2)c1 here
Reply: inactive

Task item: # fetch the recorded call for S=c1[nH]nc2ccccn12 here
Reply: inactive
